The compounds below each have a reported IC50 tested on PIK3CA (human); the values come from various publications.

Would you please look over these solved cases?
{"compound": "Cc1nc(N)ncc1-c1nc(N2CCOCC2)nc2c(CN3CCN(C(=O)[C@H](C)O)CC3)csc12", "IC50": "35 nM"}
{"compound": "CN(C)Cc1cccc(-c2ccnc3c2c(/C=C2\\Oc4cccc(O)c4C2=O)cn3C)c1", "IC50": "60 nM"}
{"compound": "C[C@H](NC(=O)c1c(N)nn2cccnc12)c1cc2cccc(C#CCNC(=O)C3CCC(=O)C3)c2c(=O)n1-c1ccccc1 (some centres unmarked)", "IC50": "100 to 1000 nM"}
{"compound": "C[C@H](Nc1cc(Cl)nn2ccnc12)c1cc2cccc(Cl)c2c(CCN2CCOCC2)n1", "IC50": "> 10000 nM"}
{"compound": "Cc1nc(N)ncc1-c1nc(N2CCOCC2)c2nc(N3CCC(CO)CC3)n(CC3CC3)c2n1", "IC50": "10 to 20 nM"}

What measured IC50 is associated with COc1cc(F)cc(-c2nn(Cc3cc4cccc(C)c4c(=O)n3-c3ccccc3C)c3ncnc(N)c23)c1 on PIK3CA (human)?
> 10000 nM

Recall the recorded IC50 for COc1ncc(-c2cccc(Oc3cc(=O)[nH]c4ccccc34)c2)c(OC)n1 with PIK3CA (human) and state it.
> 10000 nM

GET /values?readout=IC50&system=PIK3CA (human)&item= CC(C)(C#N)c1ccc(-c2nnc3cnc4ccc(-c5ccc6nc(N)oc6c5)cc4n23)cn1
< 100 nM

----------
pIC50: −log10 of the molar value.
Please find below pIC50 data on UniProtKB P42336 compiled from the literature.

Known pIC50 results, listed for orientation:
{"querySmiles": "C[C@H](Nc1ccc2c(c1)OCCn1cc(N3C(=O)COC[C@H]3C(F)F)nc1-2)C(N)=O", "pIC50": 9.42}
{"querySmiles": "Cn1ncc2c(-c3ccc4ncc(C(=O)N5CCOCC5)n4c3)cncc21", "pIC50": "> 5.00"}
{"querySmiles": "Nc1nc2cc(-c3ccc4ncc(N5CCOCC5)n4c3)ccc2o1", "pIC50": "> 5.00"}
{"querySmiles": "CN1CCN(C(=O)Nc2cccc(-c3ccc4c(N5CCOCC5)nc(-c5cnc(N)nc5)nc4c3)c2)CC1", "pIC50": "> 7.30"}

So what does the record say about pIC50 for CCc1ccccc1-n1c(Cn2nc(-c3cccc(O)c3)c3c(N)ncnc32)nc2scc(C)c2c1=O ?
< 5.00

Field request: pIC50 | item: O=c1cc(Oc2cccc(NCc3ccsc3)c2)c2ccccc2[nH]1
< 5.00

Which pIC50 is reported for this compound? CN1CCN([C@H]2CCN(c3cnc4ccc(-c5ccc6oc(N)nc6c5)cc4n3)C2)CC1
> 7.00

Could you tell me which pIC50 is on file for CS(=O)(=O)Nc1cccc(-c2ccc3c(N4CCOCC4)nc(-c4cnc(N)nc4)nc3c2)c1 ?
6.70 to 7.30

For the compound shown here, O=c1cc(Oc2cccc(NCc3ccc(-c4cccc(CO)n4)cc3)c2)c2ccccc2[nH]1 , give the reported pIC50.
5.41

----------
pIC50: −log10 of the molar value.
Target or system PIK3CA (human); metric pIC50; compiled from varied reports.

{"querySmiles": "O=c1cc(Oc2ccccc2C(F)(F)F)c2ccccc2[nH]1", "pIC50": 6.51}
{"querySmiles": "Cn1ncc2c(Nc3ccc(C(N)=O)cc3)nc(-c3ccoc3)nc21", "pIC50": 6.50}
{"querySmiles": "CC(C)Cn1c(N2CCN[C@H](C)C2)nc2c(N3CCOCC3)nc(-c3cnc(N)nc3)nc21", "pIC50": "> 8.00"}
{"querySmiles": "C[C@@H]1C[C@H](N2CCC(CNc3nc(N4CCOCC4)cc(-n4c(C(F)F)nc5ccccc54)n3)CC2)C[C@H](C)O1", "pIC50": 5.48}
{"querySmiles": "CC(C)Cn1c(N2CCN(C(=O)CO)CC2)nc2c(N3CCOCC3)nc(-c3cnc(N)nc3)nc21", "pIC50": "> 8.00"}

Query for PIK3CA (human): what pIC50 does the record show for Nc1nc2cc(-c3ccc4ncn(CCCN5CCOCC5)c(=O)c4c3)ccc2o1 ?
> 6.00

Record C[C@H](Nc1ccnc2scnc12)c1cc2cccc(Cl)c2c(=O)n1-c1cccc(F)c1 : what is its pIC50 with PIK3CA (human)?
5.00 to 6.00

Value wanted: pIC50 (PIK3CA (human)) of entry CC1CCN(C(=O)N2CCOc3ccc(-c4cnc(N)nc4)cc3C2)CC1
5.52 to 6.00

----------
Reported IC50 against PIK3CA (human) (UniProt P42336), gathered from multiple publications, appears below.

See these solved cases before continuing.
{"querySmiles": "NC(=O)c1ccc(Nc2nc(-c3ccccc3O)nc3c2cnn3C2CCN(Cc3ccccc3)CC2)cc1", "val": "2250 nM"}
{"querySmiles": "Nc1ncc(-c2nc(N3CCOCC3)c3ncc(-c4ccc(NC(=O)C5CC5)cc4F)cc3n2)cn1", "val": "< 50 nM"}
{"querySmiles": "CC(C)c1ccn2nc(N)c(C(=O)N[C@@H](C)c3cc4cccc(Cl)c4c(=O)n3-c3ccccc3)c2n1", "val": "> 10000 nM"}

Find the measured IC50: item CN1CCN(c2ccnc3c2c(/C=C2\Oc4ccc(NC(=O)Nc5cccnc5)cc4C2=O)cn3C)CC1 , target or system PIK3CA (human) (UniProt P42336).
632 nM

Report IC50 for C[C@H](NC(=O)c1c(N)nn2cccnc12)c1cc2cccc(C#CCN)c2c(=O)n1-c1ccccc1 tested on PIK3CA (human) (UniProt P42336).
1000 to 10000 nM

Short answer please: IC50, PIK3CA (human) (UniProt P42336), entry COc1ncc(-c2cc(OC3CCCC3)c3ncnc(C)c3c2)cc1NS(=O)(=O)c1ccc(F)cc1F
0.92 nM

----------
pIC50: −log10 of the molar value.
Study the reported pIC50 values for PIK3CA (human) (UniProt P42336) given below; they originate from different publications.
measurementType: pIC50

{"compound": "CNc1nc(C)c2cc(-c3cnc(OC)c(NS(=O)(=O)c4ccc(F)cc4F)c3)cc(OC3CCCC3)c2n1", "assaySystem": "PIK3CA (human) (UniProt P42336)", "val": 8.07}
{"compound": "Cc1nc(NC(=O)N2CCC(C)(C)C2C(N)=O)sc1-c1ccnc(C2(C)CC2)c1 (racemic)", "assaySystem": "PIK3CA (human) (UniProt P42336)", "val": 7.28}

[P] Cn1cc(/C=C2\Oc3cccc(O)c3C2=O)c2c(-c3cccc(C(=O)Nc4ccccc4)c3)ccnc21
[Q] CCn1ccc2c(N3CCOCC3)nc(-c3ccc(NC(=O)Nc4ccc(C(=O)N5CCN(C(C)C)CC5)cc4)cc3)nc21
Please tell me which of the two, P or Q , has the higher reported pIC50 value. Choose, then provide that item's label.
Q

----------
pIC50: −log10 of the molar value.
// note: pIC50 values for PIK3CA (human) were reported in different studies

Answered examples (3):
{"compound": "Cn1cc(/C=C2\\Oc3cccc(O)c3C2=O)c2c(N3CC4CC3CN4)ccnc21 (centres unmarked)", "assaySystem": "PIK3CA (human)", "val": 7.70}
{"compound": "Nc1ccc(-c2nc(N3CCOCC3)c3nc(-c4cccc(NS(=O)(=O)c5c(F)cccc5F)c4F)ccc3n2)cn1", "assaySystem": "PIK3CA (human)", "val": "6.00 to 7.00"}
{"compound": "C[C@H](NC(=O)c1c(N)nn2cccnc12)c1cc2cccc(C#CCNC(=O)[C@@H]3CCC(=O)O3)c2c(=O)n1-c1ccccc1", "assaySystem": "PIK3CA (human)", "val": "6.00 to 7.00"}

Item Nc1ncccc1CNc1cccc(Oc2cc(=O)[nH]c3ccccc23)c1 with PIK3CA (human) - pIC50?
< 5.00

What is its pIC50 for PIK3CA (human)? Entry: Cc1nc2ccc(-c3ccc4c(c3)CN(C(=O)N3CCCCC3c3cccc(Cl)c3)CCO4)cc2[nH]1 (centres unmarked)
6.70 to 7.12

I'm curious: which pIC50 was measured for OCC1CCC(N2CCC(CNc3nc(N4CCOCC4)cc(-n4c(C(F)F)nc5ccccc54)n3)CC2)CC1 (centres unmarked) tested on PIK3CA (human)?
< 5.52

What pIC50 appears in the records for this compound with PIK3CA (human)? Cc1cccc2cc([C@H](C)Nc3ncnc4cccnc34)nc(N3CCN(C)CC3)c12
> 5.00

# get_value(readout= pIC50, system= PIK3CA (human)) for CC(O)C(=O)N1CCN(Cc2cnc3c(N4CCOCC4)nc(-c4cnc(N)nc4)nc3c2)CC1 (centres unmarked)
5.00 to 6.70

# value lookup — system PIK3CA (human), readout pIC50, item CC(=O)Nc1nc2ccc(-c3ccc4nc(N)oc4c3)cc2s1
> 7.00

Find pIC50 (PIK3CA (human)) for the entry Cc1cc(-c2cnc(O)c(NS(C)(=O)=O)c2)cc2c1OCCN(c1nc(N)nc(C)c1C(C)C)C2
5.60 to 6.30

pIC50 of Cc1ccccc1-n1c(Cn2nc(-c3ccc4sc(N)nc4c3)c3c(N)ncnc32)cc2cccc(C)c2c1=O on PIK3CA (human)?
> 6.00

Lookup: pIC50 / PIK3CA (human) / COc1ncc(-c2cccc3cc([C@H](C)Nc4ncnc5scnc45)n(-c4cccc(F)c4)c(=O)c23)cn1
5.00 to 6.00

What reported pIC50 corresponds to CSc1ccc(-c2ccc3ncc4ccc(=O)n(-c5cccc(C(F)(F)F)c5)c4c3n2)cn1 on PIK3CA (human)?
7.77

Write down the reported pIC50 of CC1CN(c2cnc3ccc(-c4ccc5oc(N)nc5c4)cc3n2)CC(C)N1 (centres unmarked) , test system: PIK3CA (human).
> 6.00

# get_value(readout= pIC50, system= PIK3CA (human)) for Nc1nc2cc(-c3ccc4ncc(N5CC6CCC(C5)O6)nc4n3)ccc2o1
> 7.00

Lab request: please report pIC50 under test system PIK3CA (human) for CC(C)(C)c1ncc2c(n1)-c1sc(NC(=O)N3CCC3C(N)=O)nc1CC2 (centres unmarked)
8.15

# query: pIC50 | item CN1CC(C(=O)N2CC[C@H](Nc3cc(-n4c(C(F)F)nc5ccccc54)nc(N4CCOCC4)n3)C2)CC1=O (some centres unmarked) | system: PIK3CA (human)
5.70

// lookup pIC50 | system=PIK3CA (human) | key= Nc1ccc(-c2ccc(Oc3cc(=O)[nH]c4ccccc34)cc2)cc1
6.11

Hi! What's the reported pIC50 for Cn1cc(/C=C2\Oc3cccc(O)c3C2=O)c2c(-c3ccc(CO)nc3)ccnc21 on PIK3CA (human)?
7.39
